target: E-selectin (Homo sapiens) (UniProt P16581); test: inducers of endothelial E-selectin expression – imaging, HUVEC, immunofluorescence imaging, single point, primary screen (AID 686992); conditions: at 7.58 µM, stronger effect = higher value, normalized: neutral wells 0, TNF-alpha wells 100;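 note: signal is the percent of cells scored E-selectin positive by PE staining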
Sequence (P16581 whole entry, looked up): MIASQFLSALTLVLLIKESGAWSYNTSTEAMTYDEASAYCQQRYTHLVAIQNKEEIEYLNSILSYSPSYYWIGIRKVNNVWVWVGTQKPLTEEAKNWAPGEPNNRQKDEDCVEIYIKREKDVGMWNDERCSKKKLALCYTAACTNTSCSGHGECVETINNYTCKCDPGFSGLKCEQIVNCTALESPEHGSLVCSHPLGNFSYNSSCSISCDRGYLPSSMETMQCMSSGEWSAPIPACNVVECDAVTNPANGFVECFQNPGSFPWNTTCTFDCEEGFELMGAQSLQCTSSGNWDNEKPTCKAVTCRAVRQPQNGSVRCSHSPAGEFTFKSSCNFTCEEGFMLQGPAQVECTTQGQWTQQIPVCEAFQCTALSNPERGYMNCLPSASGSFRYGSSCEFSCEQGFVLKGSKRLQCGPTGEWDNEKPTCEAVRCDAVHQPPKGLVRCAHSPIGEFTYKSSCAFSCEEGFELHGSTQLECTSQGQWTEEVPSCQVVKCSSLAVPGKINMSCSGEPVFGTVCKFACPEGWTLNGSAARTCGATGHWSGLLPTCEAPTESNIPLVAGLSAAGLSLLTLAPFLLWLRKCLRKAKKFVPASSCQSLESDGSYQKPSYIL
Among all 260,000 compounds or so, about 960 (0.37%) were called active. Only a selection was taken, and actives are over-represented in it overall.
measurementType: activation (%)
Return type: number; implicit unit %.

Kindly note the recorded activation for COc1ccc(OC)c(C(O)c2ncc(-c3cccc(C(F)(F)F)c3)[nH]2)c1 (configuration not stated) , which is -0.085

Value of activation reported for the compound O=C(Nc1ccc(Br)cc1)c1cc(S(=O)(=O)Nc2ccccn2)ccc1Cl is 0.225

Entry Cc1ccc(C)c(C(O)c2ncc(-c3cccc4ccccc34)[nH]2)c1 (configuration not stated) — recorded activation = -0.22

GET /value?item= NC(=S)NN=Cc1ccc(OC(=O)COc2cc(Cl)c(Cl)cc2Cl)cn1 &field=activation returns 0.0825

Notebook: CCOC(=O)C1C(C)C(C(C)(C)C)N(S(=O)(=O)c2ccc(C)cc2)C1c1ccccc1 (configuration not stated) , activation read as -0.306

Value of activation reported for the compound C[C@H](CO)N1C[C@H](C)[C@@H](CN(C)C(=O)Nc2cccc3ccccc23)Oc2c(NS(=O)(=O)c3ccccc3)cccc2C1=O is -0.43

Form: compound = COc1cccc(-c2ccc3c(c2)N(Cc2ccccc2OC)C(=O)C(C)S3)c1 (configuration not stated) ; activation = -0.102

The recorded activation for entry COc1ccc(Sc2ccc(NC(=O)c3cccc(Cl)c3)cc2C#N)cc1 equals 2.08

For record COC(=O)C[C@H]1CC[C@@H](NC(=O)c2ccccc2)[C@@H](CO)O1 the listed activation is -0.322

In plain terms, O=C(C[C@H]1CC[C@@H]2[C@H](COC[C@H](O)CN2CCC(F)(F)F)O1)NCC1CC1 has a documented activation of -0.0615

Kindly note the recorded activation for C[C@@H]1CN([C@H](C)CO)C(=O)c2cccc(NC(=O)Nc3ccccc3)c2O[C@@H]1CN(C)C(=O)NC1CCCCC1 , which is 0.168

Per the record, C[C@H](CO)N1C[C@H](C)[C@@H](CN(C)S(=O)(=O)c2ccc([N+](=O)[O-])cc2)OCc2ccccc2-c2c(n(C)c3ccccc23)C1=O has activation of 0.251

Record COCCn1c(SCC(=O)c2[nH]c(C)c(C(C)=O)c2C)nc2ccccc2c1=O , field activation: -0.059

// sample CC1COc2ccccc2N1S(=O)(=O)c1ccccc1 (configuration not stated) , its activation was 0.485

Looking up C[C@H]1CN([C@@H](C)CO)C(=O)c2cccc(NS(=O)(=O)c3cn(C)cn3)c2O[C@@H]1CN(C)C(=O)Nc1ccc(F)cc1 , I found its activation recorded as 46.9

What the record says about COc1cccc(C(=O)Nc2ccc3nc4n(c(=O)c3c2)CCCCC4)c1 : activation is 0.059

// activation value for COc1ccc(NC(=O)N(C)C[C@@H]2Oc3c(NS(=O)(=O)c4cn(C)cn4)cccc3C(=O)N([C@H](C)CO)C[C@@H]2C)cc1 : -11.1

Consider O=C(NCCN1CCOCC1)c1ccc2c(c1)N(Cc1cccc(Cl)c1)C(=O)c1ccccc1S2(=O)=O . Its measured activation is 0.148

So for CCNS(=O)(=O)c1ccc(CCC(=O)N2CCN(c3ccc(OC)cc3)CC2)cc1 , the logged activation turned out to be 31.3

// activation lookup, compound = COc1ccc(S(=O)(=O)N(C)CC(=O)NCCCN2CCOCC2)cc1Cl , result: 0.0915

Field activation (entry CCCCCCCNC(=O)C1(CC2CC(c3cccc(Br)c3)=NO2)CCN(C(=O)c2cc(OCC)c(OCC)c(OCC)c2)CC1 (configuration not stated) ) reads 0.076

# activation of Cc1c(C(=O)Nc2cccc(-c3nnc4n3CCCCC4)c2)oc2ccccc12 = -1.41

Quick note, activation for CCCCSCCCNC(=O)C1CCC(CNS(=O)(=O)c2ccc(NC(C)=O)cc2)CC1 (configuration not stated) landed at 58.2

Record O=C(NN=Cc1ccco1)C(=O)Nc1ccc(Cl)c([N+](=O)[O-])c1 . Reported activation: -0.0805

Sure, the documented activation for COc1ccccc1CCn1cnc(-c2ccccc2)c1C(C)C is -0.038

Form: compound = O=C(c1cccnc1)N1C[C@@H]2[C@H](c3ccccc31)[C@@H](CO)N2C(=O)Nc1ccc(F)cc1 ; activation = 0.778

Given item CN1C(=O)C(Br)(Br)CC1c1cccnc1 (configuration not stated) , the value recorded as its activation is 0.457

Short answer for COc1ccc(C(C)(O)c2nc(-c3ccc(C)c(C)c3)cs2)cc1 (configuration not stated) : activation was -0.298

The reported value for C[C@@H]1CN([C@H](C)CO)C(=O)c2cc(Br)cnc2O[C@@H]1CN(C)C(=O)C1CC1 in terms of activation is 118

Entry under test: C=CCC[C@H](CCCCC)OC(=O)/C=C/[C@H](O)[C@@H](O)C[C@@H](O)CC=C . Its activation was -5.32

Recorded activation (compound C[C@@H]1CN([C@@H](C)CO)C(=O)c2cc(-c3ccccc3F)cnc2O[C@@H]1CN(C)Cc1cccc(F)c1 ): -0.0955

activation reported for this compound CNC(=O)C1CN(C(=O)c2cccc(S(=O)(=O)N3CCc4ccccc43)c2)c2ccccc2O1 (configuration not stated) : -0.207

# activation (compound: COCCCn1c(-c2cccs2)nc2nc3ccccc3nc21 ) is 42.8

Looking up CCOCCCn1c(NN)nc2ccccc2c1=O , I found its activation recorded as -0.132

Lab note: measured activation of CCNS(=O)(=O)c1ccc(CCC(=O)N2CCN(c3cc(Cl)ccc3C)CC2)cc1 was -0.168

activation reading for C/C=C/c1cnc2c(c1)C(=O)N([C@@H](C)CO)C[C@H](C)[C@@H](CN(C)C(=O)C1CC1)O2 : 0.382

Kindly note the recorded activation for CCCNC(=O)c1cc2c(c(-c3cccc(-c4ccc(C#N)cc4)c3)n1)[C@@H](CCO)N(C(=O)CC)C2 , which is 1.79
